Tested on: Candida mycoderma
Assay: Test of antibacterial activity in vitro (bacteria-inhibition zone)
Type: cell-based
Conditions: 0 h; 2.8 μg/ml after conversion; serum added (40% defibered sheep serum)
parameter: diameter of the bacteria-inhibition zone, Candida mycoderma 0 h

Enquiry: Name the reported diameter of the bacteria-inhibition zone, Candida mycoderma 0 h value associated with the molecule Cc1oc(=O)oc1COC(=O)C1C(O)CC2(O)CC(O)CC(O)C(O)CCC(O)CC(O)CC(=O)OC(C)C(C)C(O)C(C)C=CC=CC=CC=CC=CC=CC=CC(OC3OC(C)C(O)C(N)C3O)CC1O2 (stereo not shown)
Return: ++ (9-12 mm: ++)

Enquiry: Next molecule: CC(C)OC(=O)OC(C)OC(=O)C1C(O)CC2(O)CC(O)CC(O)C(O)CCC(O)CC(O)CC(=O)OC(C)C(C)C(O)C(C)C=CC=CC=CC=CC=CC=CC=CC(OC3OC(C)C(O)C(N)C3O)CC1O2 (stereo not shown)
Return: ++ (9-12 mm: ++)

Enquiry: Repeat with CC(OC(=O)OC1CCCCC1)OC(=O)C1C(O)CC2(O)CC(O)CC(O)C(O)CCC(O)CC(O)CC(=O)OC(C)C(C)C(O)C(C)C=CC=CC=CC=CC=CC=CC=CC(OC3OC(C)C(O)C(N)C3O)CC1O2 (stereo not shown)
Return: ++ (9-12 mm: ++)
